- TARGET OR TEST SYSTEM: T1, Human GDF8 homodimer (mature human Growth and Differentiation Factor-8) (human, UniProt O14793 267-375)
- T1 construct: also called hGDF8; myostatin
- T1 sequence: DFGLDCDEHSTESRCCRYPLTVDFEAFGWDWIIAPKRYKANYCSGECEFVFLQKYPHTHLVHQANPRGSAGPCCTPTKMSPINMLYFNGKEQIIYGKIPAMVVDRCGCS
- ASSAY EXPLANATION: SPR, antibody captured, 25 nM antigen
QUANTITY KIND: Kd (nM)

# BINDER, QUANTITY KIND, UNIT INFO, EXPERIMENTAL VALUE
measured = [
    ("19F2 (antibody, V domains shown) VH: QVQLVESGGGVVQPGRSLRLSCEASGFTFSSSGMHWVRQAPGKGLQWVAVISYDGNNKFYEDSVKGRLTISRDNSNNTLWLQMNSLRVEDTAVYYCAKSGGRVGAAFAYWGQGTLVTVSS VL: DIVNTQSPLSLPVTPGEPASISCRSSQSLLYGNGYNYLDWYLQKPGHSPQLLIYLGSNRGSGVPDRFSGSGSGTDFTLKISRVEAEDVGIYYCMQTLQTPFTFGPGTKMYIK", "Kd", "nM", 0.5),
    ("21-B9 (antibody, V domains shown) VH: QVQLVQSGPGLVKPSETLSLTCTVSGGSISNSNYYWGWIRQPPGKGLEWIGTTYYSGTTYYNPSLKSRVTISVDTSKNQFSLKLSSVTAADTAVYYCARDYYDSSGYYYNWFDPWGQGTTVTVSS VL: DIQLTQSPSSLSASVGDRVTITCRASQDIRNDLGWYQQKPGKAPKRLIYAASSLQSGVPSRFSGSGSGTEFSLTLSSLQPEDFATYFCLQHHIYPWTFGQGTKLEIKR", "Kd", "nM", 0.12),
    ("21-A2 (antibody, V domains shown) VH: QVQLVQSGGGLVQPGGSLRLSCAASGFTFNTYAISWVRQAPGKGLEWVSTITGSGYNTYYADSVKGRFTISRDNSKNTLYLQMSSLRAEDTAVFYCAKDSRYNWNYGIFDYWGQGTTVTVSS VL: DIQMTQSPATLSVSPGERATLSCRASQSVSSNLAWYHQKPGQAPRLLIYGVSTRATGIPARFSGNGSGTEFTLTISSLQSEDFAVYYCQQHNNWPLTFGGGTKVEIKR", "Kd", "nM", 0.4),
]
